Below, each entry is listed alongside its reported log reduction at 50 µM.
System: SARS-CoV-2
Assay: microbe, parasite or virus in culture
Assay type: cell-based, SARS-CoV-2 (hCoV-19/Russia/Moscow-PMVL-12/2020 strain)
Details: Severe acute respiratory syndrome coronavirus 2, Vero C1008, 96 h; read-out: Δlog10(RNA), logarithmic change in the SARS-CoV-2 RNA levels
Lab note: jot the number down without any unit.

Solved entries (count: 2):
CC(C)(C)c1ccc(Nc2cn(C3C=CC(O)C3)c(=O)[nH]c2=O)cc1 (stereo not drawn): 1.1
CCCCCc1ccc(-c2cc3cn(C4C=CC(O)C4)c(=O)nc3o2)cc1 (stereo not drawn): 1.3

Now examine the next entry.
Fill in the blank: the reported log reduction at 50 µM of CC(C)(C)c1ccc(-c2cc3cn(C4C=CC(O)C4)c(=O)nc3[nH]2)cc1 (stereo not drawn) is ____.
0.3
